procedure text: Temperature stability study in H2O
Assay type: physicochemical
setup conditions: 50° C., 120 min
property: % Remaining
The answer should read as a number with its unit following.

Query: % Remaining; subject: O=C(CCc1cccnc1)ON1C(=O)CCC1=O
3.50%

Would you kindly share the measured % Remaining for O=C(CCc1cccnc1)Oc1ccc([N+](=O)[O-])cc1 [Compound D, 4-Nitrophenyl-3-(pyridin-3-yl)propanoate] ?
67.54%

Entry under review: O=C(CCc1cccnc1)Oc1c(F)cccc1F . Reported % Remaining?
85.20%

Can you share its % Remaining? I mean this compound: O=C(CCc1cccnc1)Oc1c(F)c(F)cc(F)c1F
42.50%

% Remaining for O=C(CCc1cccnc1)Oc1c(Cl)cccc1Cl ?
84.24%
